Taken from ChEMBL document CHEMBL1151112.

- test_name: Induction of morphological transformation of rat ASK cells into astrocytes after 1 hr by light microscopy
- Format: functional
- condition_set: read-out: ED50 (the source's name)

molecule: C=C[C@@]1(C)CC(O)[C@]2(O)[C@@]3(C)[C@@H](O)CCC(C)(C)[C@@H]3[C@H](O)[C@H](OC(C)=O)[C@@]2(C)O1 (stereo partly drawn)
EC50: 6.53 µM
--
molecule: CC1=C(/C=C/C(C)=C/C=C/C(C)=C\C(=O)O)C(C)(C)CCC1
EC50: < 10 µM
--
molecule: CC(/C=C/C12OC1(C)CCCC2(C)C)=C\C=C\C(C)=C\C(=O)O (stereo not drawn)
EC50: > 25 µM
